# experimental.system: T1, rat hypothalamic Y5 receptor (rat)
# T1 chain: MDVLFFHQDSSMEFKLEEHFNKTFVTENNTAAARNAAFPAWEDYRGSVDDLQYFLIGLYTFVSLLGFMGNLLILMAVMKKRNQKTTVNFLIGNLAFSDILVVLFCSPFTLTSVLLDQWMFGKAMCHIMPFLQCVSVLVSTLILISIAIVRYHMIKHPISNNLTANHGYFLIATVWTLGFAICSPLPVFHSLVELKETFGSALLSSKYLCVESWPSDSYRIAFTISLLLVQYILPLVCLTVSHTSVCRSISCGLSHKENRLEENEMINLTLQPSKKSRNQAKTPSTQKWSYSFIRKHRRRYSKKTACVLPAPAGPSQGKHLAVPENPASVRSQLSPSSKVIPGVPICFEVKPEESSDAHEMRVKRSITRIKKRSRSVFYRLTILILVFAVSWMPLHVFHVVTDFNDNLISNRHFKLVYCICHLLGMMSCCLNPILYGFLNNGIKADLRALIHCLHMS
# protocol: 125I-PYY displacement, COS-7 membranes
pKi: −log10 of the molar value. Ends that are not written are not given here.
Provide the recorded pKi for the entries that follow.

Record excerpt, results attached:
| binder | readout.value |
| --- | --- |
| YPSKPDNPGEDAPAEDMARYYSAL-NH2 [human NPY1-24 amide] | < 6.00 |
| YYSALRHYINLITRQRY (ends and bridges not checked) [porcine NPY20-36] | < 7.00 |

Given PLEPVY-OH [human PP31-36 free acid] , state its recorded pKi.
< 5.00
